target: recombinant Bacillus subtilis PBP4 (Bacillus subtilis); assay: BOCILLIN FL fluorescence polarization displacement assay, PBP4; conditions: fluorescence polarization dose response 0-50 µM; read-out: IC50, PBP4 BOCILLIN FL binding inhibition
Sequence (P40750 22-624): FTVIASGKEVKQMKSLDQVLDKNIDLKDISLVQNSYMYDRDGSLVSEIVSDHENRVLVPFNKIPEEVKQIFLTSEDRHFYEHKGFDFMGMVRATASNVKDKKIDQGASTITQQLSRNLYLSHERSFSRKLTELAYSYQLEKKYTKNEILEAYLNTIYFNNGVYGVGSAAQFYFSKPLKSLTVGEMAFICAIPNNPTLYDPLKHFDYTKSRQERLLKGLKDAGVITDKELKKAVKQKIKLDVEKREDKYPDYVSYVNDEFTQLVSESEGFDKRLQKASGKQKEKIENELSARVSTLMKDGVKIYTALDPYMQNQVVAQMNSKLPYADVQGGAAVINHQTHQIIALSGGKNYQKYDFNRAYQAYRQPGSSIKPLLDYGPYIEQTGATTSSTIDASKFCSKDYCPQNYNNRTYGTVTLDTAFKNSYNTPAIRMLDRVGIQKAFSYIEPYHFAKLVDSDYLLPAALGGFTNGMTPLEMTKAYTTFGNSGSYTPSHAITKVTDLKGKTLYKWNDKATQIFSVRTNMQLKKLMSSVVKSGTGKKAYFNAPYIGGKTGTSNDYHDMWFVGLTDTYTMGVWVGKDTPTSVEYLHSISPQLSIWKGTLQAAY
measure-name: IC50 (µM)

- molecule: "CC1CCN(C(=O)c2cccc(NC(=O)Nc3ccc(Cl)cc3)c2)CC1 [Compound 9314848]"
  assay-system: "recombinant Bacillus subtilis PBP4 (Bacillus subtilis)"
  measure-unit: "µM"
  value-reported: 13.4

====

system: S. aureus USA300∆pbp4 pPBP4; experiment: microbe, parasite or virus in culture; format: cell-based; conditions: Staphylococcus aureus, USA300, read-out: Minimum inhibitory concentration

- structure-as-smiles: "C/C(=C\\C(=O)OCCCCCCCCC(=O)O)C[C@@H]1OC[C@H](C[C@@H]2O[C@H]2[C@@H](C)[C@H](C)O)[C@@H](O)[C@H]1O"
  MIC: "0.125 µg/mL"
- structure-as-smiles: "CCOc1ccc2ccccc2c1C(=O)N[C@@H]1C(=O)N2[C@@H]1SC(C)(C)[C@@H]2C(=O)O"
  MIC: "8 µg/mL"
- structure-as-smiles: "Nc1nc(/C(=N/O)C(=O)N[C@@H]2C(=O)N3C(C(=O)O)=C(/C=C4\\CCN([C@@H]5CCNC5)C4=O)CS[C@H]23)ns1"
  MIC: "0.5 µg/mL"
- structure-as-smiles: "CN(C)c1ccc(O)c2c1C[C@H]1C[C@H]3[C@H](N(C)C)C(O)=C(C(N)=O)C(=O)[C@@]3(O)C(O)=C1C2=O"
  MIC: "0.5 µg/mL"
- structure-as-smiles: "C[C@H]1COc2c(N3CCN(C)CC3)c(F)cc3c(=O)c(C(=O)O)cn1c23"
  MIC: "1 µg/mL"
- structure-as-smiles: "C[C@@H](O)[C@H]1C(=O)N2C(C(=O)O)=C(S[C@@H]3CN[C@H](C(=O)N(C)C)C3)[C@H](C)[C@H]12"
  MIC: "4 µg/mL"
- structure-as-smiles: "NC[C@H]1O[C@H](O[C@H]2[C@H](O)[C@@H](O[C@H]3O[C@H](CO)[C@@H](O)[C@H](N)[C@H]3O)[C@H](N)C[C@@H]2N)[C@H](N)C[C@@H]1O"
  MIC: "1 µg/mL"
